Source: the supplement of paper PMC13380429

- Test system: Vero E6
- test-name: cell viability relative to DMSO; higher = less toxic
- assay-setup: 72 h; 10 nM
Below, each entry is listed alongside its reported cell viability.
Please state the figure in %; there is no need to write the unit.

Worked examples, 4 molecules total:
[[record]]
molecule = "COc1cc([C@@H]2c3cc4c(cc3[C@@H](O[C@@H]3O[C@@H]5CO[C@@H](c6cccs6)O[C@H]5[C@H](O)[C@H]3O)[C@H]3COC(=O)[C@H]23)OCO4)cc(OC)c1O [teniposide]"
outcome_measure = "cell viability"
measurement = 92.8

[[record]]
molecule = "Nc1c(-c2cccc(C(F)(F)F)c2)nsc1C(=O)O [amflutizole]"
outcome_measure = "cell viability"
measurement = 97.8

[[record]]
molecule = "COc1ccc(-c2coc3cc(O)ccc3c2=O)cc1 [formononetin]"
outcome_measure = "cell viability"
measurement = 101

[[record]]
molecule = "C[C@@H]1CC(=O)c2c(ccc3c2C(=O)c2cccc(O)c2C3=O)C1 [ochromycinone]"
outcome_measure = "cell viability"
measurement = 100


input: Request the reported cell viability associated with CC(C)NC[C@@H](O)c1ccc(O)c(O)c1 (racemic) [isoprenaline]
output: 97.6

input: Same for O=C(O)CCC(=O)C(=O)O [2-oxoglutaric-acid]
output: 104

input: Same for CC(=O)Nc1cccc(-n2c(=O)n(C3CC3)c(=O)c3c(Nc4ccc(I)cc4F)n(C)c(=O)c(C)c32)c1 [trametinib]
output: 94.2

input: Same for COC(=O)[C@@H]1C[C@H](OC(C)=O)C(=O)[C@H]2[C@@]1(C)CC[C@H]1C(=O)O[C@H](c3ccoc3)C[C@]21C [salvinorin-A]
output: 108

input: Same for CCN(CC)CC1CCN(c2ncc3ncnc(Nc4ccc(F)c(Cl)c4)c3n2)CC1 [BIBU-1361]
output: 96.4

input: Same for CN(C(=O)/C=C/c1ccoc1)[C@@H]1CC[C@@]2(O)[C@H]3Cc4ccc(O)c5c4[C@@]2(CCN3CC2CC2)[C@H]1O5 [nalfurafine]
output: 101

input: Same for CC(=O)OC[C@H]1O[C@@](COC(C)=O)(O[C@H]2O[C@H](COC(C)=O)[C@@H](OC(C)=O)[C@H](OC(C)=O)[C@H]2OC(C)=O)[C@@H](OC(C)=O)[C@@H]1OC(C)=O [sucrose-octaacetate]
output: 100

* * *

Below, each entry is listed alongside its reported relative viability EC50.
- Test system: Caco-2
- test-name: relative viability EC50 (midpoint between 100% and the lowest measured viability); higher = less toxic
- assay-setup: 72 h

[[record]]
molecule = "C/C(=N\\Nc1nnc2c(n1)[nH]c1c(C)cccc12)c1ccccn1 [VLX600]"
measurement = "0.32 µM"

[[record]]
molecule = "O=C1C(CC[S+]([O-])c2ccccc2)C(=O)N(c2ccccc2)N1c1ccccc1 (configuration not stated) [sulfinpyrazone]"
measurement = "> 10 µM"

[[record]]
molecule = "CN(C/C=C/C#CC(C)(C)C)Cc1cccc2ccccc12 [terbinafine]"
measurement = "> 10 µM"

[[record]]
molecule = "O=c1oc2c(O)c(O)cc3c(=O)oc4c(O)c(O)cc1c4c23 [ellagic-acid]"
measurement = "> 10 µM"

[[record]]
molecule = "Cc1cc(C)cc(C(=O)NOCCCCCC(=O)NO)c1 [LMK-235]"
measurement = "1.22 µM"


input: Request the reported relative viability EC50 associated with Cc1ccc(C(=O)Nc2cccc(C(F)(F)F)c2)cc1Nc1nc(-c2cccnc2)nc2c1cnn2C [NVP-BHG712]
output: > 10 µM

input: Same for CCOC(=O)COc1ccc2c(=O)cc(-c3ccccc3)oc2c1 [efloxate]
output: > 10 µM

input: Same for CNCCC=C1c2ccccc2C=Cc2ccccc21 [norcyclobenzaprine]
output: > 10 µM

input: Same for O=C1Nc2ccccc2C12OCC1(CO2)COC2(OC1)C(=O)Nc1ccccc12 (configuration not stated) [JW-67]
output: > 10 µM

input: Same for O=C(CCc1ccncc1)NNC(=O)N1Cc2ccccc2Oc2ccc(Cl)cc21
output: > 10 µM

input: Same for CCOc1ccc(Nc2nc(-c3c(C)nc4ccccn34)cs2)cc1 [JK-184]
output: 0.578 µM

input: Same for CC[C@]12CCCN3CCc4c(n(c5ccccc45)[C@@](O)(C(=O)OC)C1)[C@@H]32 [vincamine]
output: > 10 µM

input: Same for C[C@@H]1C[C@H]2[C@@H]3CCC4=CC(=O)C=C[C@]4(C)[C@@]3(F)[C@@H](O)C[C@]2(C)[C@@]1(O)C(=O)COP(=O)(O)O [DEXAMETHASONE SODIUM PHOSPHATE]
output: > 10 µM

* * *

- System: U2OS
- test-name: cell viability relative to DMSO; higher = less toxic
- assay-setup: 72 h; 100 nM
Below, each entry is listed alongside its reported cell viability.
Please state the figure in %; there is no need to write the unit.

Worked examples, 6 molecules total:
[[record]]
molecule = "COc1cc(/C=C/c2ccc(OC)cc2OC)cc(OC)c1"
outcome_measure = "cell viability"
unit_abbreviation = "%"
measurement = 94.1

[[record]]
molecule = "CCO[C@@H](Cc1ccc(OCCn2c(C)ccc2-c2ccc(SC)cc2)cc1)C(=O)O"
outcome_measure = "cell viability"
unit_abbreviation = "%"
measurement = 101

[[record]]
molecule = "Nc1ncnc2nc(-c3ccc(N4CCOCC4)nc3)cc(-c3cccc(Br)c3)c12"
outcome_measure = "cell viability"
unit_abbreviation = "%"
measurement = 104

[[record]]
molecule = "CCN(CC)CCN[C@@H](C(=O)OCCC(C)C)c1ccccc1 [camylofine-chlorhydrate]"
outcome_measure = "cell viability"
unit_abbreviation = "%"
measurement = 94.8

[[record]]
molecule = "CCCn1c(=O)c2[nH]c(-c3cnn(Cc4cccc(C(F)(F)F)c4)c3)nc2n(CC)c1=O"
outcome_measure = "cell viability"
unit_abbreviation = "%"
measurement = 96.3

[[record]]
molecule = "CCn1c(-c2nonc2N)nc2cnc(Oc3cccc(NC(=O)c4ccc(OCCN5CCOCC5)cc4)c3)cc21"
outcome_measure = "cell viability"
unit_abbreviation = "%"
measurement = 91.4


input: Request the reported cell viability associated with O=C1NCCNC1c1cccs1 (centres undefined)
output: 104

input: Same for Oc1ccc(OCc2ccccc2)cc1
output: 94.9

input: Same for CC1(C)O[C@H]2CC(=O)OC[C@]23[C@H]2CC[C@@]4(C)[C@H](c5ccoc5)OC(=O)[C@H]5O[C@]54[C@]2(C)C(=O)C[C@@H]13
output: 107

* * *

- Test system: Calu-3
- test-name: drug sensitivity score (DSS) for viability; higher = more toxic; extreme values may be limits of the assay
- assay-setup: 72 h
outcome-measure: drug sensitivity score
Reply with just the number.

Worked examples, 3 molecules total:
[[record]]
molecule = "O=C(Oc1cc(S(=O)(=O)c2ccccc2)ccc1[N+](=O)[O-])c1ccc(Cl)cc1"
assay_system = "Calu-3"
measurement = 0

[[record]]
molecule = "O=C(NOCC(O)CO)c1cc(Br)c(F)c(F)c1Nc1ccc(I)cc1F (centres undefined)"
assay_system = "Calu-3"
measurement = 11.8

[[record]]
molecule = "Cn1cc(C(=O)c2cccc3ccccc23)cc1C(=O)O"
assay_system = "Calu-3"
measurement = 0


Here is the next item to consider.
input: Request the reported drug sensitivity score associated with CC1(C)O[C@H]2CC(=O)OC[C@]23[C@H]2CC[C@@]4(C)[C@H](c5ccoc5)OC(=O)[C@H]5O[C@]54[C@]2(C)C(=O)C[C@@H]13
output: 0

* * *

- Tested on: Vero E6
- test-name: relative viability EC50 (midpoint between 100% and the lowest measured viability); higher = less toxic
- assay-setup: 72 h
outcome-measure: relative viability EC50

[[record]]
molecule = "CCCCCC(=O)O[C@]1(C(C)=O)CC[C@H]2[C@@H]3CCC4=CC(=O)CC[C@]4(C)[C@H]3CC[C@@]21C [17-hydroxyprogesterone-caproate]"
measurement = "> 10 µM"

[[record]]
molecule = "C/C(=N\\NC(=N)N)c1cc(NC(=O)CCCCCCCCC(=O)Nc2cc(/C(C)=N/NC(=N)N)cc(/C(C)=N/NC(=N)N)c2)cc(/C(C)=N/NC(=N)N)c1 [semapimod]"
measurement = "> 10 µM"

[[record]]
molecule = "C[C@H](/C=C/[C@H](C)C(C)(C)O)[C@H]1CC[C@H]2/C(=C/C=C3C[C@@H](O)C[C@H](O)C3)CCC[C@]12C [paricalcitol]"
measurement = "> 10 µM"

[[record]]
molecule = "CCCN(CCC)CCc1cccc2c1CC(=O)N2 [ropinirole]"
measurement = "> 10 µM"


input: Param readout = relative viability EC50; param system = Vero E6; param query = [I-].[K+] [potassium-iodide] ; response: value
output: > 10 µM

input: Same for C/C(=N\Nc1nnc2c(n1)[nH]c1c(C)cccc12)c1ccccn1 [VLX600]
output: 0.525 µM

input: Same for CCCCCCCNS(=O)(=O)c1cccc2c(Cl)cccc12 [SC-10]
output: > 10 µM

input: Same for CCN(CC)CC1CCN(c2ncc3ncnc(Nc4ccc(F)c(Cl)c4)c3n2)CC1 [BIBU-1361]
output: 0.573 µM

input: Same for CONC(=N)c1ccc(-c2ccc(-c3ccc(C(=N)NOC)cc3)o2)cc1 [pafuramidine]
output: > 10 µM

input: Same for C[C@@H]1CC[C@H]2C(C)(C)[C@H]3C[C@@]12CC[C@@]3(C)O [cedrol]
output: > 10 µM

input: Same for Cc1cccn2c(=O)c(/C=C(\C#N)c3nc4ccccc4s3)c(Oc3ccc(F)cc3)nc12
output: > 10 µM

input: Same for CC(C)COC(=O)c1ccc(N)cc1 [isobutamben]
output: > 10 µM

input: Same for CN1CCN(C(=O)c2nc3ccc(Cl)cc3[nH]2)CC1
output: > 10 µM

input: Same for CC(C)(C)N1CCC(c2ccccc2)(c2ccccc2)CC1 [budipine]
output: > 10 µM

input: Same for COc1cc(Br)c(Nc2nc(-c3c(C)nc4ncccn34)cs2)c(Br)c1 [PTC-209]
output: 0.633 µM

input: Same for Cn1nnc(-c2ccc(-c3ccc(N4C[C@H](CO)OC4=O)cc3F)cn2)n1 [tedizolid]
output: > 10 µM

input: Same for Cn1c(NCCN(CCO)CCCc2ccc([N+](=O)[O-])cc2)cc(=O)n(C)c1=O [nifekalant]
output: > 10 µM
